system: Salmonella enterica serovar Typhimurium SL1344; conditions: MHB
Structures can show the parent of a compound that is named as a salt.
readout-type: MIC

• Oc1c(Cl)cc(Cl)c2cccnc12 [CHLOROXINE] = 25 µM
• O=C(O)CN(CCN(CC(=O)O)CC(=O)O)CCN(CC(=O)O)CC(=O)O [PENTETIC ACID] = > 50 µM
• CC1COc2c(N3CCN(C)CC3)c(F)cc3c(=O)c(C(=O)O)cn1c23 (configuration not stated) [OFLOXACIN] = ≤ 0.78 µM
• CO[C@@H]1[C@@H](OC(N)=O)[C@@H](O)[C@H](Oc2ccc3c(O)c(NC(=O)c4ccc(O)c(CC=C(C)C)c4)c(=O)oc3c2C)OC1(C)C [NOVOBIOCIN SODIUM] = > 50 µM
• CN(C)[C@@H]1C(O)=C(C(N)=O)C(=O)[C@@]2(O)C(O)=C3C(=O)c4c(O)cccc4[C@@](C)(O)[C@H]3C[C@@H]12 [TETRACYCLINE HYDROCHLORIDE] = 12.5 µM
• O=C(O)c1cn(-c2ccc(F)cc2)c2cc(N3CCNCC3)c(F)cc2c1=O [SARAFLOXACIN HYDROCHLORIDE] = ≤ 0.78 µM
• CO[C@@]1(NC(=O)C2SC(=C(C(N)=O)C(=O)O)S2)C(=O)N2C(C(=O)O)=C(CSc3nnnn3C)CS[C@@H]21 (some centres not stated) [CEFOTETAN] = ≤ 0.78 µM
• CCN1CCN(C(=O)N[C@@H](C(=O)N[C@@H]2C(=O)N3[C@@H]2SC(C)(C)[C@@H]3C(=O)O)c2ccccc2)C(=O)C1=O [PIPERACILLIN SODIUM] = 12.5 µM

Which MIC value is on record for CCCCc1nc(Cl)c(CO)n1Cc1ccc(-c2ccccc2-c2nnn[nH]2)cc1 [LOSARTAN] ?
> 50 µM

Which MIC value is on record for COc1cc(Cc2cnc(N)nc2N)cc(OC)c1OC [TRIMETHOPRIM] ?
≤ 0.78 µM

Which MIC value is on record for CC(=O)OC1CN2CCC1CC2 (configuration not stated) [ACECLIDINE] ?
> 50 µM

Which MIC value is on record for O=C(N[C@H](CO)[C@H](O)c1ccc([N+](=O)[O-])cc1)C(Cl)Cl [CHLORAMPHENICOL] ?
12.5 µM

Which MIC value is on record for CN(C)C(=O)Oc1ccc[n+](C)c1 [PYRIDOSTIGMINE BROMIDE] ?
> 50 µM
